Test: Phase I single ascending dose study, pharmacokinetics of P5P enteric-coated tablet
Assay type: in vivo, healthy subjects
Settings: both sexes, human, plasma; single oral dose 250 mg, fasting, baseline-corrected
Description: A Phase I, single center, single-dose, open-label, sequential ascending dose study to evaluate the safety and tolerance of pyridoxal-5′-phosphate, in an enteric-coated tablet, following a single dose of 250 mg, 750 mg, 1000 mg, and 4000 mg in healthy subjects under fasting conditions was conducted. […]
MEASUREMENT_LABEL: half-life (h)
Please give a number only; it is taken to be in h.

Request: What half-life value was documented for this molecule, "Cc1ncc(COP(=O)(O)O)c(C=O)c1O" ?
Response: 53.8

====

Assay: Phase I single ascending dose study, pharmacokinetics of P5P enteric-coated tablet
Format: in vivo, healthy subjects
Conditions: both sexes, human, plasma; single oral dose 750 mg, fasting, baseline-corrected
Procedure: A Phase I, single center, single-dose, open-label, sequential ascending dose study to evaluate the safety and tolerance of pyridoxal-5′-phosphate, in an enteric-coated tablet, following a single dose of 250 mg, 750 mg, 1000 mg, and 4000 mg in healthy subjects under fasting conditions was conducted. […]
MEASUREMENT_LABEL: half-life
Your answer should be a number followed by the unit of measure.

Request: What half-life value was documented for this compound, Cc1ncc(COP(=O)(O)O)c(C=O)c1O [P5P] ?
Response: 1670 min

====

assay: Phase I single ascending dose study, pharmacokinetics of P5P enteric-coated tablet; assay type: in vivo, healthy subjects; details: both sexes, human, plasma; single oral dose 4000 mg, fasting, baseline-corrected
MEASUREMENT_LABEL: Cmax (ng/mL)
Please give a number only; it is taken to be in ng/mL.

Request: What Cmax value was documented for this compound, Cc1ncc(COP(=O)(O)O)c(C=O)c1O [P5P] ?
Response: 1700

====

experiment: Phase I single ascending dose study, pharmacokinetics of P5P enteric-coated tablet; assay type: in vivo, healthy subjects; details: both sexes, human, plasma; single oral dose 1000 mg, fasting, baseline-corrected
MEASUREMENT_LABEL: Cmax (ng/mL)
Please give a number only; it is taken to be in ng/mL.

Request: What Cmax value was documented for this molecule, "Cc1ncc(COP(=O)(O)O)c(C=O)c1O" ?
Response: 1500

====

experiment: Phase I single ascending dose study, pharmacokinetics of P5P enteric-coated tablet; type: in vivo, healthy subjects; conditions: both sexes, human, plasma; single oral dose 1000 mg, fasting, baseline-corrected
MEASUREMENT_LABEL: Tmax
Your answer should be a number followed by the unit of measure.

Request: What Tmax value was documented for this compound, "Cc1ncc(COP(=O)(O)O)c(C=O)c1O" ?
Response: 2.9 h

====

experiment: Phase I single ascending dose study, pharmacokinetics of P5P enteric-coated tablet; assay type: in vivo, healthy subjects; conditions: both sexes, human, plasma; single oral dose 1000 mg, fasting, baseline-corrected
MEASUREMENT_LABEL: half-life
Your answer should be a number followed by the unit of measure.

Request: What half-life value was documented for this compound, "Cc1ncc(COP(=O)(O)O)c(C=O)c1O" ?
Response: 36.2 h

====

test: Phase I single ascending dose study, pharmacokinetics of P5P enteric-coated tablet; assay type: in vivo, healthy subjects; conditions: both sexes, human, plasma; single oral dose 4000 mg, fasting, baseline-corrected
MEASUREMENT_LABEL: half-life

Request: What half-life value was documented for this molecule, "Cc1ncc(COP(=O)(O)O)c(C=O)c1O" ?
Response: 16.5 h

These data points were gathered from patent US20100197635A1.
